# assay-procedure: Molar enthalpy of transition or fusion
# study-conditions: Crystal; DSC
observable: Molar enthalpy of transition or fusion (kcal/mol)
Unit kcal/mol implied. Number only.

// known answers, use as guide
>>> measured("C[n+]1ccn(C(C)(C)C)c1.[I-] [1-tert-butyl-3-methylimidazolium iodide]")
3.63
>>> measured("C[n+]1ccn(C(C)(C)C)c1.F[P-](F)(F)(F)(F)F [1-tert-butyl-3-methylimidazolium hexafluorophosphate]")
5.52
>>> measured("CC(C)[n+]1ccn(C)c1.[I-] [1-methyl-3-(1-methylethyl)imidazolium iodide]")
3.9
>>> measured("CC(C)[n+]1ccn(C)c1.O=S(=O)([N-]S(=O)(=O)C(F)(F)F)C(F)(F)F")
5.78
>>> measured("CC(C)[n+]1ccn(C)c1.F[P-](F)(F)(F)(F)F [1-methyl-3-(1-methylethyl)imidazolium hexafluorophosphate]")
3.75
>>> measured("C[n+]1ccn(C(C)(C)C)c1.O=S(=O)([N-]S(=O)(=O)C(F)(F)C(F)(F)F)C(F)(F)C(F)(F)F")
3.99

# input for lookup
So what does the record say about Molar enthalpy of transition or fusion for "C[n+]1ccn(C(C)(C)C)c1.O=S(=O)([N-]S(=O)(=O)C(F)(F)F)C(F)(F)F" ?
5.47

---

# study-conditions: Crystal; DSC
Numbers after ± are expanded uncertainties.
observable: Triple point temperature

// known answers, use as guide
>>> measured("C[n+]1ccn(C(C)(C)C)c1.O=S(=O)([N-]S(=O)(=O)C(F)(F)C(F)(F)F)C(F)(F)C(F)(F)F")
"294.3 ± 1.8 K"
>>> measured("C[n+]1ccn(C(C)(C)C)c1.[I-] [1-tert-butyl-3-methylimidazolium iodide]")
"432.7 ± 1.8 K"
>>> measured("CC(C)[n+]1ccn(C)c1.F[P-](F)(F)(F)(F)F [1-methyl-3-(1-methylethyl)imidazolium hexafluorophosphate]")
"374 ± 1.8 K"
>>> measured("CC(C)[n+]1ccn(C)c1.O=S(=O)([N-]S(=O)(=O)C(F)(F)F)C(F)(F)F")
"283.5 ± 1.8 K"
>>> measured("C[n+]1ccn(C(C)(C)C)c1.F[P-](F)(F)(F)(F)F [1-tert-butyl-3-methylimidazolium hexafluorophosphate]")
"421 ± 1.8 K"

So what does the record say about Triple point temperature for "C[n+]1ccn(C(C)(C)C)c1.O=S(=O)([N-]S(=O)(=O)C(F)(F)F)C(F)(F)F" ?
280.4 ± 1.8 K

So what does the record say about Triple point temperature for CC(C)[n+]1ccn(C)c1.[I-] [1-methyl-3-(1-methylethyl)imidazolium iodide] ?
383.4 ± 1.8 K

---

# study-conditions: 323.2 K; 100.9 kPa; Liquid; Cone and plate viscometry
Numbers after ± are expanded uncertainties.
Below, each entry is listed alongside its reported viscosity.
For clarity, give the value followed by its unit.

>>> measured("C[n+]1ccn(C(C)(C)C)c1.O=S(=O)([N-]S(=O)(=O)C(F)(F)C(F)(F)F)C(F)(F)C(F)(F)F")
"80.9 ± 6.6 mPa·s"
>>> measured("C[n+]1ccn(C(C)(C)C)c1.O=S(=O)([N-]S(=O)(=O)C(F)(F)F)C(F)(F)F")
"37.5 ± 3 mPa·s"
>>> measured("CC(C)n1cc[n+](C)c1.O=S(=O)([N-]S(=O)(=O)C(F)(F)C(F)(F)F)C(F)(F)C(F)(F)F")
"38 ± 3.1 mPa·s"

# input for lookup
So what does the record say about viscosity for "CC(C)[n+]1ccn(C)c1.O=S(=O)([N-]S(=O)(=O)C(F)(F)F)C(F)(F)F" ?
19.3 ± 1.6 mPa·s
